system: OVCAR-3 ovarian; assay: NCI-60 one-dose screen, 48 h (100 = growth as untreated, 0 = no growth, -100 = all killed); conditions: 10 µM unless noted
The panel holds about 83,000 compounds, 20% with a hit somewhere; the sample as a whole holds those more often.
OBSERVABLE: growth (%)

1) CC(=O)/C(C)=N\OC(=O)Nc1ccccc1; 104
2) O=c1n(CC2CO2)c(=O)n(CC2CO2)n1CC1CO1 (configuration not stated); 72.7
3) Cc1ccccc1NC(=O)Oc1ccc(Cl)cc1C(=O)c1ccccc1; 95.3
4) NC(=O)NCCO; 106
5) CC(=O)Nc1ccc(O)c(C)c1; 107
6) CCCCCCCCNC(=O)C(C)C; 109
7) CC12CCC3c4ccc(O)cc4CCC3C1CCC2=O (configuration not stated); 112

###

Test system: MALME-3M melanoma
Experiment: NCI-60 one-dose screen, 48 h
Details: 10 µM unless noted
Experimental: Cells are grown in 96 well plates and exposed to the test compound for 48 hours. Compounds are tested at a single concentration, which is 10^-5 M for most compounds. The reported endpoint is percent growth (GI% or GIPRCNT), where numbers from 0 - 100% represent growth inhibition, and numbers from -100% - 0 represent cell death. For example, a value of 40 represents 60% growth inhibition. A value of 0 means no net growth occurred over the course of the experiment. […]
This is part of a sample that, as a whole, favours compounds with a hit. Of some 83,000 tested, about 20% had one in any assay. Activity calls are given as the source filed them. How the source made its calls: active means growth percent below 10; inactive means the rest.
Outcome codes: YES for active, NO for inactive

1. C=C(C)COc1ccc(C(C)(C)C)cc1; NO
2. O=C(O)C1CCCN1C(=O)OCc1ccccc1 (configuration not stated); NO
3. Cc1nc(O)cc(=O)[nH]1; NO
4. Nc1ncc([N+](=O)[O-])cn1; NO
5. C1CCc2onc(-c3noc4c3CCCCC4)c2CC1; NO
6. O=C(O)c1ccccc1Cc1ccc2c(c1)CCCC2; NO
7. CC1(C)OC(=O)CC1=O; NO
8. CCC(/C=C\C(C)=O)CC; NO
9. Cc1cc(Cc2ccccc2)c(O)c(Cc2ccccc2)c1; NO
10. NS(=O)(=O)c1cc(=O)[nH]c(=O)[nH]1; NO
11. Cc1cc(CC(=O)NCCO)n(CCO)c(=O)c1; NO
12. CC(=O)OCC1OC(n2cnc3c(=S)nc(N)[nH]c32)C(OC(C)=O)C1OC(C)=O (configuration not stated); NO
13. Cc1onc(-c2ccccc2Cl)c1C(=O)Cl; NO
14. O=C(O)Cc1cccc2ccccc12; NO
15. Cc1ccccc1NC(=O)Oc1ccc(Cl)cc1C(=O)c1ccccc1; NO
16. COc1ccc2c(c1)Nc1ccccc1S2; NO
17. CCN(CC)CCCC(C)NC(=S)N/N=C(\C)c1ccccn1 (configuration not stated); NO
18. Cn1/c(=N\N=C\c2ccccc2OCCO)sc2ccccc21; NO
19. O=C(c1cccc(C(=O)c2ccc3c4c(cccc24)C(=O)N(c2ccccc2)C3=O)c1)c1ccc2c3c(cccc13)C(=O)N(c1ccccc1)C2=O; NO
20. COc1cc(C(=O)O)c(O)c(C(C)(C)C)c1; NO
21. CN1CCN(C(=S)S)CC1; NO
22. CNc1ccccc1C(=O)N/N=C/C=C/c1ccccc1; NO
23. CC(=O)OC/C(C)=C\CC(C)COC(C)=O (configuration not stated); NO
24. CC(C)(N)CO[C@H]1C[C@H]2CC[C@@]1(C)C2(C)C; NO
25. CC1(C)OC2C(CO)OC(n3ccc(=O)[nH]c3=O)C2O1 (configuration not stated); NO
26. O=C(CC(CC(=O)c1ccccc1)c1ccccn1)c1ccccc1; NO
27. N#Cc1ccc(OC(=O)Nc2cc(Cl)cc(Cl)c2)cc1; YES

###

tested on: SF-539 CNS; test: NCI-60 one-dose screen, 48 h (100 = growth as untreated, 0 = no growth, -100 = all killed); settings: 10 µM unless noted
This is part of a sample that, as a whole, favours compounds with a hit. Of some 83,000 tested, about 20% had one in any assay.
Consider the following compounds and their measured growth readings.
OBSERVABLE: growth (%)

1) CC(=O)NC(CCC(=O)c1ccccc1)C(=O)O (stereo not drawn); 91.2
2) COC1(OC)C2(Cl)C(Cl)=C(Cl)C1(Cl)C1COCC12 (stereo not drawn); 109
3) Nc1cc(N)ncn1; 99.2
4) CC(=O)N(C(C)=O)c1ccc(C)cc1; 98
5) CC(=O)Nc1ccc(O)c(C)c1; 100
6) BrCc1cccc(C[P+](c2ccccc2)(c2ccccc2)c2ccccc2)c1; 35.4
7) O=C(Nc1ccccc1)c1ccco1; 102
8) CC(C)N(C(=O)c1ccccc1)C(C)C; 98.3
9) O=C1C=CC(=O)C2=C1CCCC2; 104
10) Nc1nc2nnc(-c3ccccc3)c(-c3ccccc3)n2n1; 80.9
11) OC(CCN1CCCCC1)(c1ccccc1)c1ccccc1; 117
12) CCOC(=O)CO; 119
13) CN1C(=O)NC(c2ccc(Cl)cc2)(c2ccc(Cl)cc2)C1=O; 111
14) CC(c1ccccc1)N(C)C (stereo not drawn); 103
15) CC1(C)C2CCC1(C)C1(C2)OCCS1 (stereo not drawn); 94.1
16) OCCOc1ccc(-c2cc(-c3ccccn3)nc(-c3ccccn3)c2)cc1; -6.53
17) Cc1ccc(NCN2C(=O)c3ccccc3C2=O)c(C)n1; 116
18) CC(=O)c1cccc(NS(=O)(=O)c2ccc(C)cc2)c1; 74.6
19) CCNCC(C)(C)O; 102
20) Cc1ccnc(Nc2nc3ccccc3[nH]2)n1; 98
21) N#CC1(O)CCCCC1; 105
22) Cc1ccc(NC(=S)N2CCOCC2)cc1C; 103
23) Cc1cc(Nc2ccc3c(c2)OCO3)c2cc3c(cc2n1)OCO3; -15.5
24) O=C1NCC2CCCC1C2 (stereo not drawn); 111
25) NCCCN1CCCC1=O; 109
26) CCOc1ccc(C(=O)NCC(C)C)cc1; 94.4
27) CCN(CC)c1ccc2nc3ccc(N=Nc4ccc(N(C)C)cc4)cc3[n+](-c3ccccc3)c2c1; -69.2
28) CC(C)(C)NCCC(O)c1cc(C(F)(F)F)nc2c(C(F)(F)F)cccc12 (stereo not drawn); 75.1

###

tested on: SK-MEL-28 melanoma; assay: NCI-60 one-dose screen, 48 h (100 = growth as untreated, 0 = no growth, -100 = all killed); settings: 10 µM unless noted
Compounds without any hit were thinned out: in the full panel of roughly 83,000, 20% have a hit. The source made the active and inactive calls. The calls were made as follows: active = growth percent below 10; inactive = the rest.
OBSERVABLE: growth

1) NCC(O)C(O)C(O)C(O)CO (centres undefined); 108% (inactive)
2) CCOC(=O)/C(C)=C\c1ccc(OC)c(OC)c1; 108% (inactive)
3) COc1cccc2c1Cc1ccccc1-2; 115% (inactive)
4) CCN(Cc1ccc(Cl)c(Cl)c1)c1ccc2nc(N)nc(N)c2c1C; -95.4% (active)
5) CN(C)c1ncnc2c1cnn2C; 112% (inactive)
6) O=CNCCc1ccccc1; 113% (inactive)
7) CCOS(=O)(=O)c1ccc([N+](=O)[O-])cc1; 107% (inactive)
8) CC(=O)OC(C)c1cccc(C#N)c1 (centres undefined); 114% (inactive)
9) CC(=O)NCNC(C)=O; 107% (inactive)
10) Cc1ccccc1NC(=O)Oc1ccc(Cl)cc1C(=O)c1ccccc1; 106% (inactive)
11) O=C(NCc1ccco1)Nc1cccc2c(NC(=O)NCc3ccco3)cccc12; 91.3% [100 µM] (inactive)
12) COC1OC(C(COC(C)=O)OC(C)=O)C(OC(C)=O)C(OC(C)=O)C1OC(C)=O (centres undefined); 105% (inactive)
13) Cc1ccc(O)c(N)c1; 122% (inactive)
14) CC(C)C(=O)OCCOc1ccc(C(C)(C)C)cc1; 110% (inactive)

###

tested on: COLO 205 colon; test: NCI-60 one-dose screen, 48 h (100 = growth as untreated, 0 = no growth, -100 = all killed); conditions: 10 µM unless noted
Compounds without any hit were thinned out: in the full panel of roughly 83,000, 20% have a hit.
Consider the following compounds and their measured growth readings.
OBSERVABLE: growth (%)

1. Clc1ncnc2nc[nH]c12; 101
2. CC(C)(C)CC1(C)NC(=O)NC1=O (stereo not drawn); 135
3. CCOc1ccc(C(=O)O)cc1; 105
4. CN1CCCN(C(c2ccccc2)c2ccc(Cl)cc2)CC1 (stereo not drawn); 103
5. O=C(O)c1ccc([N+](=O)[O-])cc1S(=O)(=O)O; 112
6. COc1cc(C(=O)N2CCN(c3ccccc3)CC2)c2ccccc2n1; -44.9
7. c1ccc(-c2ccc3ccccc3c2)cc1; 96.3
8. COc1cc(OC)c2cc(C(=O)c3ccc(C#N)cc3)c(=O)oc2c1; 117
9. C#CCSc1nnnn1-c1ccccc1; 113
10. CCCCCCCCCCCCCCCCCC(=O)NCCNC(=O)CCCCCCCCCCCCCCCCC; 84.5
11. C=COC(=O)C(C)(C)C; 104
12. CCC(=O)C1C(=O)c2ccccc2C1=O; 122
13. O=C(O)CCCCCNC(=O)OCc1ccccc1; 99
